Test system: F380Y/beta4
test method notes: modulators of BK channel variants, profiling panel, selectivity assay, cell-based, U2OS BacMam, thallium flux, beta subunits (AID 1259406);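 further: initial slope of Thallos dye fluorescence rise after thallium is added; log ratio against the mean of 0.3% DMSO vehicle wells on the same plate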
protocol conditions: at 30 µM
The source made the active and inactive calls.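 How the source made its calls: active means thallium flux through the channel raised or lowered by more than 3 SD from vehicle-only wells, actives on both sides; inactive means the rest.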
Outcomes: label 1 (active), label 0 (inactive)

molecule	target under test	class label
Oc1c(Cl)cc(Cl)c2cccnc12	F380Y/beta4	label 1
CC(C)(C)NCC(O)COc1cccc2c1C[C@H](O)[C@H](O)C2 (stereo partly specified)	F380Y/beta4	label 0
CCCCCCCCCCC[C@@H](C[C@@H]1OC(=O)[C@H]1CCCCCC)OC(=O)[C@H](CC(C)C)NC=O	F380Y/beta4	label 0
CN(C)CCC[C@@]1(c2ccc(F)cc2)OCc2cc(C#N)ccc21	F380Y/beta4	label 0
O=C(C1CCCCC1)N1CC(=O)N2CCc3ccccc3C2C1 (stereo unspecified)	F380Y/beta4	label 0
N[C@@H](Cc1cc(I)c(Oc2cc(I)c(O)c(I)c2)c(I)c1)C(=O)O	F380Y/beta4	label 1
CCOc1ccc2ccccc2c1C(=O)N[C@@H]1C(=O)N2[C@@H]1SC(C)(C)[C@@H]2C(=O)O	F380Y/beta4	label 0
COC(=O)Nc1nc2ccc(C(=O)c3ccccc3)cc2[nH]1	F380Y/beta4	label 0
CC(=O)S[C@@H]1CC2=CC(=O)CC[C@]2(C)[C@H]2CC[C@@]3(C)[C@@H](CC[C@@]34CCC(=O)O4)[C@H]12	F380Y/beta4	label 0
OC(CCN1CCCC1)(c1ccccc1)C1CCCCC1 (stereo unspecified)	F380Y/beta4	label 1
CCCSc1ccc2nc(NC(=O)OC)[nH]c2c1	F380Y/beta4	label 0
c1ccc(CC2=NCCN2)cc1	F380Y/beta4	label 0
CO[C@@]1(NC(=O)Cc2cccs2)C(=O)N2C(C(=O)O)=C(COC(N)=O)CS[C@@H]21	F380Y/beta4	label 0
C[C@]12C=CC(=O)C=C1CC[C@@H]1[C@@H]2C(=O)C[C@@]2(C)[C@H]1CC[C@]2(O)C(=O)CO	F380Y/beta4	label 0
NS(=O)(=O)c1cc2c(cc1C(F)(F)F)NCNS2(=O)=O	F380Y/beta4	label 0
O=C1[C@H](CC[C@H](O)c2ccc(F)cc2)[C@@H](c2ccc(O)cc2)N1c1ccc(F)cc1	F380Y/beta4	label 1
CC1=C(C(=O)O)N2C(=O)[C@@H](NC(=O)[C@H](N)c3ccccc3)[C@H]2SC1	F380Y/beta4	label 0
Cc1noc(NS(=O)(=O)c2ccc(N)cc2)c1C	F380Y/beta4	label 0
CC(C)Oc1ccc2c(=O)c(-c3ccccc3)coc2c1	F380Y/beta4	label 0
CCCCCCNC(=O)n1cc(F)c(=O)[nH]c1=O	F380Y/beta4	label 0
C[C@H](CS)C(=O)N1CCC[C@H]1C(=O)O	F380Y/beta4	label 0
CCOC(=O)C1=C(C)NC(C)=C(C(=O)OC)C1c1cccc([N+](=O)[O-])c1 (stereo unspecified)	F380Y/beta4	label 0
CC(COc1ccccc1)NC(C)C(O)c1ccc(O)cc1 (stereo unspecified)	F380Y/beta4	label 0
CC1(C)O[C@@H]2C[C@H]3[C@@H]4C[C@H](F)C5=CC(=O)C=C[C@]5(C)[C@H]4[C@@H](O)C[C@]3(C)[C@]2(C(=O)CO)O1	F380Y/beta4	label 0
CCc1nc(N)nc(N)c1-c1ccc(Cl)cc1	F380Y/beta4	label 0
CS(=O)(=O)OCCCCOS(C)(=O)=O	F380Y/beta4	label 0
CC1=C(CC(=O)O)c2cc(F)ccc2/C1=C\c1ccc(S(C)=O)cc1 (stereo unspecified)	F380Y/beta4	label 0
O=S(=O)(O)CCS	F380Y/beta4	label 0
CC1(C)O[C@@H]2[C@@H](CO[C@@]3(COS(N)(=O)=O)OC(C)(C)O[C@@H]23)O1	F380Y/beta4	label 0
CCCCNC(=O)NS(=O)(=O)c1ccc(C)cc1	F380Y/beta4	label 0
CCC(=O)O[C@]1(C(=O)CCl)[C@@H](C)C[C@H]2[C@@H]3CCC4=CC(=O)C=C[C@]4(C)[C@@]3(F)[C@@H](O)C[C@@]21C	F380Y/beta4	label 1
O=c1[nH]cnc2[nH]ncc12	F380Y/beta4	label 0
CN(C)CCOC(C)(c1ccccc1)c1ccccn1 (stereo unspecified)	F380Y/beta4	label 0
CC(=O)O[C@]1(C(C)=O)CC[C@H]2[C@@H]3C=C(C)C4=CC(=O)CC[C@]4(C)[C@H]3CC[C@@]21C	F380Y/beta4	label 0
C[C@@H]1C[C@H]2[C@@H]3CCC4=CC(=O)C=C[C@]4(C)[C@@]3(F)[C@@H](O)C[C@]2(C)[C@@]1(O)C(=O)CO	F380Y/beta4	label 0
c1ccc2c(CC3=NCCN3)cccc2c1	F380Y/beta4	label 0
